Target: T1, HLA A*0201 presenting HCMV pp65 peptide […] on cells (human HLA-A*02:01 and B2M; HCMV pp65 …, strain)
T1 construct: copies: + +
Test: flow cytometry on cells
Details: one partner purified
reported.property: binding result

1) Fab C1 tetramer (Fab, V domains shown, copies: 4 + 4) VH: EVQLVQSGAEVKKPGSSVKVSCKASGGTFSSYAISWVRQAPGQGLEWMGGIIPIFGTANYAQKFQGRVTITADESTSTAYMELSSLRSEDTAVYYCARGLAAPDYFDYWGQGTLVTVSS VL: QSVVTQPPSVSGAPGQRVTISCTGSSSNIGAGYDVHWYQQLPGTAPKLLIYGNSNRPSGVPDRFSGSKSGTSASLAITGLQAEDEADYYCQSYDSSLSGPFYVFGTGTKVTVL
binds
2) biotinylated Fab C1 (Fab, V domains shown, source: E. coli TG1, biotinylated in vivo, purified (IMAC, Talon beads)) VH: EVQLVQSGAEVKKPGSSVKVSCKASGGTFSSYAISWVRQAPGQGLEWMGGIIPIFGTANYAQKFQGRVTITADESTSTAYMELSSLRSEDTAVYYCARGLAAPDYFDYWGQGTLVTVSS VL: QSVVTQPPSVSGAPGQRVTISCTGSSSNIGAGYDVHWYQQLPGTAPKLLIYGNSNRPSGVPDRFSGSKSGTSASLAITGLQAEDEADYYCQSYDSSLSGPFYVFGTGTKVTVL
binds
3) biotinylated Fab A11 (Fab, V domains shown, source: E. coli TG1, biotinylated in vivo, purified (IMAC, Talon beads)) VH: EVQLVQSGAEVKRPGASVKVSCKASGYTFTSYGIGWVRQAPGQGLEWMGWISAYSGNTNYAQNFQGRITMTTDTSTSTAYMELRSLRSDDTAVYYCARDFGKWDLPMYGMDVWGQGTTVTVSS VL: QSVLTQPPSVSVAPGGTARISCGGNNIGTKNVHWYQQKPGQAPVLVMYYNSDRPAGIPERFSGSNSGNTATLTITRVEPGDEADYYCQVWDDRRDHYVFGTGTEVTVL
binds
